assay: Half life in rat microsomes in presence of NADPH; assay type: ADME, Microsome
I'd be grateful if you could share measured half-life for these entries.

Look over these answered cases.
So, COc1cc([C@@H](O)[C@@H](CC2Cc3ccccc3C2)Cn2ccc(CC(=O)O)c2)cc(OC)c1C ? Its half-life was 34 min

So, COc1cc([C@@H](O)[C@@H](CC2Cc3ccccc3C2)Cn2ccc(CCC(=O)O)c2)cc(OC)c1C ? Its half-life was 15 min

So, COc1cc([C@@H](O)[C@@H](CCCc2cccs2)Cn2ccc(CC(=O)O)c2)cc(OC)c1C ? Its half-life was < 15 min

So, COc1cc(C(=O)N(C/C=C/c2ccccc2)Cc2ccc(CC(=O)O)cc2)cc(OC)c1C ? Its half-life was > 200 min

So, COc1cc([C@@H](O)[C@@H](CCCc2cccs2)Cn2ccc(CCC(=O)O)c2)cc(OC)c1C ? Its half-life was < 15 min

Please state, for each entry, its recorded half-life.
1. COc1cc([C@@H](O)[C@@H](CCCc2ccsc2)Cn2ccc(CC(=O)O)c2)cc(OC)c1C
2. COc1cc([C@@H](O)[C@@H](CCCc2ccsc2)Cn2ccc(CCC(=O)O)c2)cc(OC)c1C
3. COc1cc([C@@H](O)[C@@H](CCCc2ccccc2)Cn2ccc(CC(=O)O)c2)cc(OC)c1C

1: < 15 min; 2: < 15 min; 3: < 15 min

* * *

target: UniProtKB Q92633; assay: Antagonist activity at recombinant human LPA1 expressed in CHO cells assessed as reduction in LPA-induced intracellular calcium level pretreated followed by LPA addition by Fura-2-AM dye based fluorescence assay; type: functional, cell-based
Sequence (Q92633 whole entry): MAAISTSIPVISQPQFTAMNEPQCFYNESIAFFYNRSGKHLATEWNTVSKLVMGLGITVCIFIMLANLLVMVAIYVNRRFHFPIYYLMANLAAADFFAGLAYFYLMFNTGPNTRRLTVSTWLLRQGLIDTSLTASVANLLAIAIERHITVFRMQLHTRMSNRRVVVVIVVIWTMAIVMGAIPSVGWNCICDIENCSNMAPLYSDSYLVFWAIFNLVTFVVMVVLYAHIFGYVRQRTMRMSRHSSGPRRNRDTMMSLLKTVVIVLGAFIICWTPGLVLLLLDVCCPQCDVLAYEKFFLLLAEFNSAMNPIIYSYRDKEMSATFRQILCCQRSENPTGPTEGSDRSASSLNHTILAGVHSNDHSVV
Quantity: IC50 (nM)
Numbers only, in nM.

So, COc1cc([C@@H](O)[C@@H](CCCc2ccsc2)Cn2ccc(CCC(=O)O)c2)cc(OC)c1C ? Its IC50 was 38

So, COc1cc([C@@H](O)[C@@H](CCCc2ccccc2)Cn2ccc(CC(=O)O)n2)cc(OC)c1C ? Its IC50 was 32

So, COc1cc([C@@H](O)[C@@H](CCCc2ccccc2)Cn2ccc(C(=O)O)c2)cc(OC)c1C ? Its IC50 was 120

So, COc1cc([C@@H](O)[C@@H](CCCc2ccccc2)Cn2cnc(CC(=O)O)c2)cc(OC)c1C ? Its IC50 was 180

So, COc1cc(C(=O)C(CCCc2ccccc2)Cc2ccc(CC(=O)O)cc2)cc(OC)c1C (centres undefined) ? Its IC50 was 460

So, COc1cc([C@@H](O)[C@@H](CCCc2ccccc2)Cn2cc(CCC(=O)O)cn2)cc(OC)c1C ? Its IC50 was 34

So, COc1cc([C@@H](O)[C@@H](CCCc2ccccc2)Cn2nc(C)c(CC(=O)O)c2C)cc(OC)c1C ? Its IC50 was 520

Moving on to another molecule below.
So, COc1cc([C@@H](O)[C@@H](CCCc2ccccc2)Cc2ccc(CC(=O)O)cc2)cc(OC)c1C ? Its IC50 was 61

* * *

biological target: UniProt Q92633; test: Antagonist activity at recombinant human LPA1 expressed in CHO cell […] pretreated for 24 hrs prior to Fura-2-AM dye addition for 1 hr followed by compound washout and subsequent LPA stimulation measured after 3 mins by fluorescence assay; format: functional, cell-based
Quantity: pIC50
Numbers only, as −log10 of the molar value.

Measured pIC50 (UniProt Q92633), entry COc1cc([C@@H](O)[C@@H](CC2Cc3ccccc3C2)Cn2ccc(CCC(=O)O)c2)cc(OC)c1C : 9.72

Origin of measurements: ChEMBL document CHEMBL4138255
